Measured values drawn from paper PMC12340637 for this set.

Record form. Attribute: uptake ratio OCT3 (transporter-overexpressing cells over EV control cells): mean (±SD, N). Fill in for each entry.
- Target Or System: OCT3 (SLC22A3) (Homo sapiens, UniProt O75751)
- Sequence (O75751 whole entry): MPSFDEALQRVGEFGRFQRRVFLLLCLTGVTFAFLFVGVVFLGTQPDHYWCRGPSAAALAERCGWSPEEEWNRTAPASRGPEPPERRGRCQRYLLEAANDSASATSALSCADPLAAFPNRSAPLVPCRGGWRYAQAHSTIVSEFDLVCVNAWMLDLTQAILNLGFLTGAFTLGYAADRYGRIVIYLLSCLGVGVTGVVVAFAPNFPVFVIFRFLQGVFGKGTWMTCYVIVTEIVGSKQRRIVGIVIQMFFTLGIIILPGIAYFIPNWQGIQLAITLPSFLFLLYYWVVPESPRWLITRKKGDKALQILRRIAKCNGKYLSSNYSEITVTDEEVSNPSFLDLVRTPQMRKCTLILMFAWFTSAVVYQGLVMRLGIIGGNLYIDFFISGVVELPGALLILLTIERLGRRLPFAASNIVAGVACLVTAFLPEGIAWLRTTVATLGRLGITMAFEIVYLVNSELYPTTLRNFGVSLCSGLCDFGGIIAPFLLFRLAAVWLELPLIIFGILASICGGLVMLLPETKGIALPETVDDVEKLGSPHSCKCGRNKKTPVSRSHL
- Assay Name: Cellular uptake into OCT3-overexpressing HEK293 cells vs EV control cells (HPLC-MS/MS)
- Experimental Parameters: 10 μM substrate, 2 min, HEK293
Marks after values point to notes of the source that are not given here.

Any idea what uptake ratio OCT3 (transporter-overexpressing cells over EV control cells): mean (±SD, N) was measured for CC(C)NC(C)C ? 1.1 (0.2, 4)

Please answer likewise for CCCCCN 0.9 (0.3, 4)

Query CNCCCO next 1.0 (0.2, 3)

Follow-up entry: CCN(CC)CCO 1.2 (0.1, 3)

Do the same for CC(C)CN please 0.7 (0.2, 4) ^a

And CCCCCCCN ? 1.85 (1.17, 6)
